# Rabbit Psoas IC25 per record follows
# Test system: Rabbit Skeletal myofibrils (rabbit psoas muscle)
# experiment: Myofibril ATPase assay (PK/LDH NADH-coupled), skeletal myofibrils
# Format: biochemical
# applied_conditions: Table 8
# Description: Myofibril ATPase assays are known in the art to be useful in evaluating small molecules for the treatment of HCM and other cardiac indications. Myosin ATPase activity is assessed by using a coupled reaction system, in which ADP generated by the myosin ATPase function is coupled to the disappearance of NADH through the pyruvate kinase/lactate dehydrogenase (PK-LDH) system. ATPase activity produces ADP, which is used as a substrate for PK to produce pyruvate and regenerate ATP. […]
measured_attribute: Rabbit Psoas IC25 (µM)

structure_as_smiles	unit_name	measurement
CC(C)C[C@H](C(=O)N[C@H](C)c1ncc(F)cc1F)N1Cc2c(ccc(F)c2F)NC1=O	µM	100
C[C@H](NC(=O)CN1Cc2c(ccc(F)c2F)NC1=O)c1cnc(C#N)cn1	µM	0.01909
C[C@H](NC(=O)CN1Cc2c(ccc(F)c2F)NC1=O)c1ncc(C2COC2)cn1	µM	100.00
C[C@@H](NC(=O)C(C)(C)N1Cc2c(ccc(F)c2F)NC1=O)c1ncc(C#N)cc1F	µM	0.95

* * *

# Porcine Ventricle IC25 per record follows
# study_system: Porcine Ventricle myofibrils (left ventricle of Yucatan minipigs) (Sus scrofa, UniProt P79293)
# Construct: Myofibrils from porcine cardiac muscle was isolated from the left ventricle of Yucatan minipigs; tissue Exemplar Genetics; host or cells: left ventricle of Yucatan minipigs
# Sequence (P79293 whole entry): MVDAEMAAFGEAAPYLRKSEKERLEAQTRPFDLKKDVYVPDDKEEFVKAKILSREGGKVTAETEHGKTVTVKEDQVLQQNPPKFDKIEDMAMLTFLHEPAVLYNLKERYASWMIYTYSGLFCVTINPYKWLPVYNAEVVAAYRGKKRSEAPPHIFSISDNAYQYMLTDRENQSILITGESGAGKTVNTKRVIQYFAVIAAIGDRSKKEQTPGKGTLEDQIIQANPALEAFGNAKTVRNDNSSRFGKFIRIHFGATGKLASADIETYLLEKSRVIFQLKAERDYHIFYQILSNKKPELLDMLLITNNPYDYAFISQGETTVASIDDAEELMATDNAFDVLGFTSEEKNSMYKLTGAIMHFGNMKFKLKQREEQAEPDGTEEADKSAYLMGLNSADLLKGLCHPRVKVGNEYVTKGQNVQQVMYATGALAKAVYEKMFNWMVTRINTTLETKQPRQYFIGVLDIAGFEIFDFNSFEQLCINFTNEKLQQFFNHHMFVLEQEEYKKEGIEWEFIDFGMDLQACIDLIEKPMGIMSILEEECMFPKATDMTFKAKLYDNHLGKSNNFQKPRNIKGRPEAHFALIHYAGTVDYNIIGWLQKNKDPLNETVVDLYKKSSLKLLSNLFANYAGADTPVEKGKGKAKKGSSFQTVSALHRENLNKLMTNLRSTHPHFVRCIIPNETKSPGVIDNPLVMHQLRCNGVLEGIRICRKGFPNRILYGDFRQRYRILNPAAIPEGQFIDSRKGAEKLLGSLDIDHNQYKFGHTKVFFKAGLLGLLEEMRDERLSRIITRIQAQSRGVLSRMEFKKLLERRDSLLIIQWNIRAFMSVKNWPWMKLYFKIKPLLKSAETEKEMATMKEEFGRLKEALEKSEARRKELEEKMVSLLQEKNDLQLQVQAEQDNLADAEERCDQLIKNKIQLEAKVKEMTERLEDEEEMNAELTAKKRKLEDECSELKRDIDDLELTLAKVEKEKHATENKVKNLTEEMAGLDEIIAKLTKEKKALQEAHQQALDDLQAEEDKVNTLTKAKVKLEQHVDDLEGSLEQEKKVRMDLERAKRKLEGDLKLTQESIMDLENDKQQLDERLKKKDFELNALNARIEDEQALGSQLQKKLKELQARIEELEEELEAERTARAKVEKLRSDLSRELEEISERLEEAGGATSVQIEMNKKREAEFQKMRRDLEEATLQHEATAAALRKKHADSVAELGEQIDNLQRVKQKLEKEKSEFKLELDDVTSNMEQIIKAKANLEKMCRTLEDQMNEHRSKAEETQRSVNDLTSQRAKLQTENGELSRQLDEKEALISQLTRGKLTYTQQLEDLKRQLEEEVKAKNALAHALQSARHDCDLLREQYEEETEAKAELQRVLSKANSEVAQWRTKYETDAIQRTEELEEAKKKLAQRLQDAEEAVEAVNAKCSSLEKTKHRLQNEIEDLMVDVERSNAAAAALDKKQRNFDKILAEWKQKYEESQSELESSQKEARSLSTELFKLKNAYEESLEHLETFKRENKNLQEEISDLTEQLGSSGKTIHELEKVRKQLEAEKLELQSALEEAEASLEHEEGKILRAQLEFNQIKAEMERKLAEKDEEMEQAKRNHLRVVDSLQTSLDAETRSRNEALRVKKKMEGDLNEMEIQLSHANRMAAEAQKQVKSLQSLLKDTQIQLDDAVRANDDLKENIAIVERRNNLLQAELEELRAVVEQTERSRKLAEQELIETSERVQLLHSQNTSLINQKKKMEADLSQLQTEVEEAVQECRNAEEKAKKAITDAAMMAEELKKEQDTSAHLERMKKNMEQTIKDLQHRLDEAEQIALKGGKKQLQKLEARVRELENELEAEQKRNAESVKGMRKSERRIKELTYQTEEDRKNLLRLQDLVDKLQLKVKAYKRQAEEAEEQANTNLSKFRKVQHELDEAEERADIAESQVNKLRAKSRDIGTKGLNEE
# experiment: Myofibril ATPase assay (PK/LDH NADH-coupled), ventricle myofibrils
# Format: biochemical
# applied_conditions: Table 8
measured_attribute: Porcine Ventricle IC25 (µM)

molecule	unit_name	measurement
C[C@@H]1c2ccccc2NC(=O)N1CC(=O)N[C@@H](CO)c1ncc(F)cc1F	µM	100
CC1c2ccccc2NC(=O)N1CC(=O)N[C@@H](C)c1ccc(F)cc1F (some centres unmarked)	µM	4.818
O=C(CN1Cc2cc(F)ccc2NC1=O)N[C@@H](CO)c1ncc(F)cc1F	µM	1.905
C[C@H](NC(=O)CN1C(=O)Nc2ccccc2C12CC2)c1ccc(F)cc1F	µM	0.156
N#Cc1ccc2c(c1)C1(CC1)N(CC(=O)N[C@H]1COc3cc(F)cc(F)c31)C(=O)N2	µM	100
C[C@@H](NC(=O)CN1Cc2c(ccc(F)c2F)NC1=O)c1ncc(C2COC2)cn1	µM	100.00
O=C(CN1Cc2c(ccc(F)c2F)NC1=O)N[C@@H]1CCc2cc(F)cnc21	µM	0.50
C[C@H](NC(=O)CN1Cc2c(ccc(F)c2F)NC1=O)c1nc(-c2ccc(F)cn2)no1	µM	100
O=C(CN1Cc2cc(F)ccc2NC1=O)N[C@H](CO)c1ncc(F)cc1F	µM	100
Cc1cc(F)cnc1[C@@H](C)NC(=O)CN1Cc2c(ccc(F)c2F)NC1=O	µM	3.82
O=C(CN1Cc2c(ccc(F)c2F)NC1=O)N[C@@H]1COc2c(F)cc(F)cc2C1	µM	0.5759
C[C@@H](NC(=O)CN1C(=O)Nc2ccccc2[C@@H]1C)c1ncc(F)cc1F	µM	100
Cc1ccc([C@@H](C)NC(=O)CN2Cc3cc(F)ccc3NC2=O)c(F)c1	µM	100
C[C@H](NC(=O)CN1Cc2c(ccc(F)c2C#N)NC1=O)c1ccc(C#N)cn1	µM	2.318

* * *

# study_system: Porcine Ventricle myofibrils (left ventricle of Yucatan minipigs) (Sus scrofa)
# Construct: Myofibrils from porcine cardiac muscle was isolated from the left ventricle of Yucatan minipigs; tissue Exemplar Genetics; host or cells: left ventricle of Yucatan minipigs
# experiment: Myofibril ATPase assay (PK/LDH NADH-coupled), ventricle myofibrils
# Assay type: biochemical
# applied_conditions: Table 8
Could you please mark class 1 for values of Porcine Ventricle IC25 below 7 µM and class 0 for values at or above it?

compound	category
C[C@H](NC(=O)[C@H](C)N1Cc2c(ccc(F)c2F)NC1=O)c1ncc(C#N)cc1F	class 1
C[C@H](NC(=O)CN1Cc2c(ccc(F)c2F)NC1=O)c1ncc(C#N)cc1F	class 1
N#Cc1cnc2c(c1)COC[C@@H]2NC(=O)CN1Cc2c(ccc(F)c2F)NC1=O	class 0
C[C@@H](NC(=O)CN1Cc2c(ccc(F)c2C#N)NC1=O)c1ccc(C#N)cn1	class 0
C[C@@H](NC(=O)CN1Cc2c(ccc(F)c2F)NC1=O)c1ccc(C#N)nn1	class 1
C[C@H](NC(=O)CN1Cc2c(F)cc(C#N)cc2NC1=O)c1ccc(C#N)cc1F	class 0
Cc1cc(C#N)nnc1C(C)NC(=O)CN1Cc2c(ccc(F)c2F)NC1=O (single isomer, unassigned)	class 1
C[C@H](NC(=O)CN1Cc2c(ccc(F)c2F)NC1=O)c1cc2c(cn1)OCCN2	class 0
C[C@H](NC(=O)CN1Cc2c(F)cc(Cl)cc2NC1=O)c1ccc(C#N)cc1F	class 1
C[C@@H](NC(=O)[C@@H](CC1CC1)N1Cc2c(ccc(F)c2F)NC1=O)c1ccc(F)cc1F	class 0
C[C@H](NC(=O)CN1Cc2c(F)cccc2NC1=O)c1ccc(C#N)cc1F	class 1
C[C@@H](NC(=O)CN1Cc2c(ccc(F)c2F)NC1=O)c1ncc(-n2ncnn2)cc1F	class 1
Cc1cccc2c1C1(CC1)N(CC(=O)N[C@@H](C)c1cnc(C#N)cn1)C(=O)N2	class 1
C[C@H]1c2ccccc2NC(=O)N1CC(=O)N[C@@H](CO)c1ncc(F)cc1F	class 0
C[C@H](NC(=O)CN1Cc2c(ccc(F)c2F)NC1=O)c1ncc(F)cc1F	class 1

* * *

# System: Rabbit Skeletal myofibrils (rabbit psoas muscle)
# experiment: Myofibril ATPase assay (PK/LDH NADH-coupled), skeletal myofibrils
# Type: biochemical
# applied_conditions: Table 7
# Rabbit Psoas IC25 per record follows

structure_as_smiles	Rabbit Psoas IC25 / µM
C[C@H](NC(=O)[C@H](C)N1Cc2nc(C#N)ccc2NC1=O)c1ccc(F)cc1F	100
C[C@H](NC(=O)CN1Cc2nc(F)ccc2NC1=O)c1ncc(F)cc1F	30.96
C[C@H](NC(=O)CN1Cc2cnccc2NC1=O)c1ccc(Cl)cc1	8.051
C[C@H](NC(=O)CN1C(=O)Nc2ccc(C#N)nc2C12CC2)c1ccc(F)cc1F	0.063
O=C(CN1Cc2cnccc2NC1=O)N[C@H]1COc2cc(F)cc(F)c21	100
C[C@H](NC(=O)CN1C(=O)Nc2ccncc2[C@H]1C)c1ccc(F)cc1F	4.254
C[C@H](NC(=O)CN1C(=O)Nc2cccnc2C12CC2)c1ncc(C#N)cc1F	0.04764
N#Cc1nccc2c1CN(CC(=O)N[C@@H](CO)c1ccc(F)cc1F)C(=O)N2	0.0762
O=C(CN1C(=O)Nc2cccnc2C12CC2)N[C@@H]1COc2cc(F)cc(F)c21	0.01937
C[C@H](NC(=O)CN1Cc2c(ccnc2C#N)NC1=O)c1ccc(C#N)cc1F	0.0165
C[C@@H](NC(=O)CN1C(=O)Nc2cccnc2C12CC2)c1ccc(C#N)cn1	1.645
C[C@H](NC(=O)[C@H](C)N1Cc2c(ccnc2C(F)(F)F)NC1=O)c1ccc(F)cc1F	0.0727
COc1ccc2c(n1)C1(CC1)N(CC(=O)N[C@@H](C)c1ccc(F)cc1F)C(=O)N2	0.0571
Cc1c(F)cnc2c1CN(CC(=O)N[C@H](C)c1ncc(F)cc1F)C(=O)N2	15.28
C[C@@H](NC(=O)CN1C(=O)Nc2cccnc2C12COC2)c1ncc(F)cc1F	100
C[C@H](NC(=O)[C@H](C)N1Cc2ncccc2NC1=O)c1ccc(F)cc1F	1.802
C[C@H](NC(=O)CN1C(=O)Nc2cccnc2[C@@H]1C)c1ccc(F)cc1F	11.14
C[C@@H](NC(=O)CN1Cc2c(ccnc2C(F)(F)F)NC1=O)c1ncc(F)cc1F	100
C[C@H](NC(=O)CN1Cc2nc(C#N)ccc2NC1=O)c1ccc(F)cc1F	1.385
N#Cc1ccc([C@@H](CO)NC(=O)CN2Cc3c(ccnc3C#N)NC2=O)c(F)c1	0.0533
C[C@H](NC(=O)CN1Cc2c(ccnc2F)NC1=O)c1ccc(F)cc1F	0.0503
C[C@@H](NC(=O)CN1Cc2c(ccnc2C(F)(F)F)NC1=O)c1ccc(C#N)cc1F	35.6
N#Cc1cc(F)c2c(c1)OC[C@H]2NC(=O)CN1Cc2c(ccnc2C(F)(F)F)NC1=O	0.0178

* * *

# Porcine Ventricle IC25 per record follows
# study_system: Porcine Ventricle myofibrils (left ventricle of Yucatan minipigs) (Sus scrofa)
# Construct: Myofibrils from porcine cardiac muscle was isolated from the left ventricle of Yucatan minipigs; tissue Exemplar Genetics; host or cells: left ventricle of Yucatan minipigs
# experiment: Myofibril ATPase assay (PK/LDH NADH-coupled), ventricle myofibrils
# Type: biochemical
# applied_conditions: Table 8

compound	unit_name	Porcine Ventricle IC25
Cc1cc(F)c2c(c1)NC(=O)N(CC(=O)N[C@@H](C)c1ccc(C#N)cc1F)C2	µM	0.086
C[C@@H](NC(=O)CN1Cc2c(ccc(F)c2F)NC1=O)c1ncncc1F	µM	100
Cc1nc(C#N)cnc1[C@@H](C)NC(=O)CN1C(=O)Nc2ccc(F)cc2C12CC2	µM	0.19
Cc1cccc2c1C1(CC1)N(CC(=O)N[C@@H]1COc3cc(C#N)cnc31)C(=O)N2	µM	100.00
Cc1ncc(F)c([C@H](C)NC(=O)CN2Cc3c(ccc(F)c3F)NC2=O)n1	µM	100.00
O=C(CN1Cc2c(ccc(F)c2F)NC1=O)N[C@@H]1COCc2cc(F)cnc21	µM	1.04
COc1cnc([C@@H](C)NC(=O)CN2Cc3cc(F)ccc3NC2=O)c(F)c1	µM	100
CC(C)C[C@@H](C(=O)N[C@@H](C)c1ccc(F)cc1F)N1Cc2cc(F)ccc2NC1=O	µM	100
O=C(CN1Cc2c(ccc(F)c2F)NC1=O)NC1COc2ccc(F)cc2C1 (single isomer, unassigned)	µM	2.048
C[C@H](NC(=O)[C@@H](Cc1ccccc1)N1Cc2cc(F)ccc2NC1=O)c1ccc(F)cc1F	µM	100
C[C@@H](NC(=O)CN1Cc2c(ccc(F)c2F)NC1=O)c1ccc(C(F)(F)F)cn1	µM	100
C[C@H](NC(=O)CN1Cc2c(Br)cccc2NC1=O)c1ccc(F)cc1F	µM	0.2274
C[C@H](NC(=O)CN1C(=O)Nc2ccc(F)c(F)c2C12CC2)c1ncc(C#N)cc1F	µM	0.05
C[C@@H](NC(=O)CN1Cc2c(ccc(F)c2C#N)NC1=O)c1ncc(C#N)cc1F	µM	100
Cc1nnc(C(C)NC(=O)CN2Cc3c(ccc(F)c3F)NC2=O)o1 (stereo not shown)	µM	100.00
Cc1cccc2c1C1(CC1)N(CC(=O)N[C@@H]1COc3cc(C#N)cc(F)c31)C(=O)N2	µM	0.18

Where these numbers come from: patent US12509431B2
